experimental-system: apical domain of CD71 (Screen 3: 'cynomolgus apical domain of human CD71') (cynomolgus (as paragraph 454 words it; ambiguous))
experiment-description: primary ELISA
quantity-kind: RLU (RLU)

INSERT INTO assay_data (binder, quantity_kind, value_measured) VALUES
  ('CD71-binding FN3 domain SEQ ID NO: 244 (designed binder) MSLPAPKNLVVSRVTEDSARLSWTAPDAAFDSFEIGYFENLYLGEAIVLTVPGSERSYDLTGLKPGTEYVVFIGGVKGGEYSIPLSAIFTT', 'RLU', '5.23e+06'),
  ('CD71-binding FN3 domain SEQ ID NO: 290 (designed binder) MSLPAPKNLVVSRVTEDSARLSWTAPDAAFDSFFIGYLEPQPPGEAIHLYVPGSERSYDLTGLKPGTEYNVTIQGVKGGFPSEPLVATFTT', 'RLU', '6.87e+06');
